Data origin, for the record: ChEMBL document CHEMBL1127525

# Tested on: Colon 26
# Assay method text: Inhibitory concentration of compound was tested against Colon 26 Mouse Colorectal Carcinoma on 4 hour exposure
# Assay type: functional, cell-based
# Stated conditions: Colon 26, 4 h
Property: IC50 (nM)

[[record]]
molecule = "CN(Cc1cnc2nc(N)nc(N)c2n1)c1ccc(C(=O)N[C@@H](CCC(=O)O)C(=O)O)cc1 [METHOTREXATE]"
property = "IC50"
unit_string = "nM"
bound_operator = ">"
reading = 40000

[[record]]
molecule = "Nc1nc(N)c2c(n1)CCC2CCCc1ccc(C(=O)NC(CCC(=O)O)C(=O)O)cc1 (centres undefined)"
property = "IC50"
unit_string = "nM"
bound_operator = "="
reading = 1700

[[record]]
molecule = "Nc1nc(N)c2c(n1)CCC2CCc1ccc(C(=O)NC(CCC(=O)O)C(=O)O)cc1 (centres undefined)"
property = "IC50"
unit_string = "nM"
bound_operator = "="
reading = 190

[[record]]
molecule = "CCC(Cc1cnc2nc(N)nc(N)c2n1)c1ccc(C(=O)N[C@@H](CCC(=O)O)C(=O)O)cc1 (some centres undefined) [EDATREXATE]"
property = "IC50"
unit_string = "nM"
bound_operator = ">"
reading = 40000


====

# System: MC-38
# Assay method text: Inhibitory concentration of compound was tested against Colon 38 tumor growth cell line
# Assay type: functional, cell-based
# Stated conditions: Mus musculus
In this section, each of the compounds is paired with its reported IC50.
Property: IC50

[[record]]
compound = "CCC(Cc1cnc2nc(N)nc(N)c2n1)c1ccc(C(=O)N[C@@H](CCC(=O)O)C(=O)O)cc1 (some centres undefined) [EDATREXATE]"
target_entity = "MC-38"
property = "IC50"
reading = "11 nM"

[[record]]
compound = "Nc1nc(N)c2c(n1)CCC2CCCc1ccc(C(=O)NC(CCC(=O)O)C(=O)O)cc1 (centres undefined)"
target_entity = "MC-38"
property = "IC50"
reading = "5.1 nM"

[[record]]
compound = "Nc1nc(N)c2c(n1)CCC2CCc1ccc(C(=O)NC(CCC(=O)O)C(=O)O)cc1 (centres undefined)"
target_entity = "MC-38"
property = "IC50"
reading = "10 nM"

[[record]]
compound = "Nc1nc2c(c(=O)[nH]1)C(CCc1ccc(C(=O)NC(CCC(=O)O)C(=O)O)cc1)CC2 (centres undefined)"
target_entity = "MC-38"
property = "IC50"
reading = "> 1000 nM"


====

# System: P388 (Mus musculus)
# Assay method text: Inhibitory concentration of compound was tested against P388 tumor growth cell line
In this section, each of the compounds is paired with its reported IC50.
Property: IC50

[[record]]
compound = "Nc1nc2c(c(=O)[nH]1)C(CCc1ccc(C(=O)NC(CCC(=O)O)C(=O)O)cc1)CC2 (configuration not stated)"
target_entity = "P388 (Mus musculus)"
reading = "> 1000 nM"

[[record]]
compound = "Nc1nc(O)c2c(n1)CCC2CCCc1ccc(C(=O)NC(CCC(=O)O)C(=O)O)cc1 (configuration not stated)"
target_entity = "P388 (Mus musculus)"
reading = "> 1000 nM"


====

# Target entity: UniProt:P00469
# Sequence (P00469 whole entry): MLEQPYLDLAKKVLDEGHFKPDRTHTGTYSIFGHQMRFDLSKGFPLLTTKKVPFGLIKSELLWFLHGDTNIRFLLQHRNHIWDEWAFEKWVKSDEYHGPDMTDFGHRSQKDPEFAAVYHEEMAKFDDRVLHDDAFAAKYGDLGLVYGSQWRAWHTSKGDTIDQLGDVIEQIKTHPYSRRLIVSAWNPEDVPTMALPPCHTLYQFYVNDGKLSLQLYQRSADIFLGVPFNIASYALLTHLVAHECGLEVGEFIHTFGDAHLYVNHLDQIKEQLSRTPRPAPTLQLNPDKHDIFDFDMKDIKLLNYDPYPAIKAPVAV
# Assay method text: Binding affinity against TS
Property: Ki (nM)

[[record]]
smiles_structure = "Nc1nc2[nH]cc(CCc3ccc(C(=O)N[C@@H](CCC(=O)O)C(=O)O)cc3)c2c(=O)[nH]1"
property = "Ki"
reading = 550


====

# Target entity: Dihydrofolate reductase (Mus musculus, UniProt P00375)
# Sequence (P00375 whole entry): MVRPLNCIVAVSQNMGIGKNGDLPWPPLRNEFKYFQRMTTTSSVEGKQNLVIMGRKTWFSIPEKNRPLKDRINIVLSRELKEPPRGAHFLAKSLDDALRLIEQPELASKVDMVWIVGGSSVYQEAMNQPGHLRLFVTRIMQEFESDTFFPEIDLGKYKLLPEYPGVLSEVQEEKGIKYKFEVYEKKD
# Assay method text: Compound was tested for the inhibition of dihydrofolate reductase in P388 cells
In this section, each of the compounds is paired with its reported IC50.
Property: IC50 (nM)

[[record]]
compound = "Nc1nc2c(c(=O)[nH]1)C(CCc1ccc(C(=O)NC(CCC(=O)O)C(=O)O)cc1)CC2 (configuration not stated)"
property = "IC50"
unit_string = "nM"
reading = 2.1

[[record]]
compound = "Nc1nc(N)c2c(n1)CCC2CCc1ccc(C(=O)NC(CCC(=O)O)C(=O)O)cc1 (configuration not stated)"
property = "IC50"
unit_string = "nM"
reading = 72


====

# Target entity: UniProtKB P00375
# Assay method text: Binding affinity against dihydrofolate reductase
Property: Ki (nM)

[[record]]
smiles_structure = "Nc1nc2[nH]cc(CCc3ccc(C(=O)N[C@@H](CCC(=O)O)C(=O)O)cc3)c2c(=O)[nH]1"
property = "Ki"
reading = 560

